Below, each entry is listed with its recorded IC50.
# Test system: KATO-III
# Method: Cell viability (CellTiter-Fluor), KATO-III
# Type: cell-based
# Cond: Homo sapiens, 24-72 hrs
Experimental readout: IC50

Compound structure: COc1ccc(C[C@H]2NC[C@H](O)[C@H]2OC(=O)NCc2c[nH]nn2)cc1
Result: 1000 to 4000 nM

Compound structure: COc1ccc(C[C@H]2NC[C@H](O)[C@H]2OC(=O)NCC2CC2)cc1
Result: 250 to 1000 nM

Compound structure: COc1ccc(C[C@H]2NC[C@H](O)[C@H]2OC(=O)NCCc2cn[nH]c2)cc1
Result: 250 to 1000 nM

Compound structure: COc1ccc(C[C@H]2NC[C@H](O)[C@H]2OC(=O)NCc2ccccc2)cc1
Result: < 250 nM

Compound structure: COc1ccc(C[C@H]2NC[C@H](O)[C@H]2OC(=O)NCc2ccncc2)cc1
Result: 250 to 1000 nM

====

# Test system: KRAS G12D
# Method: In vitro transcription-translation (IVTT) assay, KRAS G12D reporter
# Assay type: biochemical
# Cond: HeLa S3 lysate, sfGFP/mCherry ratio, 2 hrs at 30° C.
# Excerpt: All reporter constructs have been cloned into the pT7CFE1-CHis plasmid (ThermoFisher #88860) using Gibson assembly procedures (NEB #E2611L). […] All reporters are designed to be inserted at the MCS to include a red fluorescent protein (mCherry), P2A self-cleaving peptide which releases the preceding mCherry protein product, and a fusion open reading frame containing a 3×FLAG epitope, a peptide sequence of interest (TEST), and green fluorescent protein (sfGFP). […]
Below, each entry is listed with its recorded IC50.

Compound: COCCN(CCNC(=O)O[C@@H]1[C@H](O)CN[C@H]1Cc1ccc(OC)cc1)CCc1ccccc1
IC50: > 30 µM
--
Compound: COc1ccc(C[C@H]2NC[C@H](O)[C@H]2OC(=O)Nc2nnc(C)s2)cc1
IC50: > 30 µM
--
Compound: COc1ccc(CC2NCC(O)[C@H]2OC(=O)NCCN(Cc2ccccn2)Cc2ccccn2)cc1 (stereo in doubt)
IC50: 20 to 30 µM
--
Compound: COc1ccc(C[C@H]2NC[C@H](O)[C@H]2OC(=O)Nc2nnc(CO)s2)cc1
IC50: < 10 µM
--
Compound: CCN(CC)CCOCCNC(=O)O[C@@H]1[C@@H](O)CN[C@@H]1Cc1ccc(OC)cc1
IC50: > 30 µM
--
Compound: COc1ccc(C[C@H]2NC[C@H](O)[C@H]2OC(=O)NCCN2CCC3(C2)CC(F)(F)C3)cc1
IC50: > 30 µM
--
Compound: COc1ccc(C[C@H]2NC[C@H](O)[C@H]2OC(=O)NCCCOCC(C)C)cc1
IC50: 20 to 30 µM
--
Compound: COCc1nnc(NC(=O)O[C@@H]2[C@@H](O)CN[C@@H]2Cc2ccc(OC)cc2)s1
IC50: > 30 µM
--
Compound: COc1ccc(C[C@H]2NC[C@H](O)[C@H]2OC(=O)NCCNc2c(N)c(=O)c2=O)cc1
IC50: > 30 µM
--
Compound: COc1ccc(C[C@H]2NC[C@H](O)[C@H]2OC(=O)NCC2CCSCC2)cc1
IC50: 10 to 20 µM
--
Compound: COc1ccc(C[C@H]2NC[C@H](O)[C@H]2OC(=O)NC[C@@H]2NC(=O)CNC2=O)cc1
IC50: > 30 µM
--
Compound: COc1ccc(C[C@H]2NC[C@H](O)[C@H]2OC(=O)NCCN2CCN(Cc3ccccc3)CC2)cc1
IC50: 10 to 20 µM
--
Compound: COc1ccc(C[C@H]2NC[C@H](O)[C@H]2OC(=O)NCCc2ccon2)cc1
IC50: < 10 µM
--
Compound: COc1ccc(C[C@H]2NC[C@H](O)[C@H]2OC(=O)NNC(=O)Cc2ccccc2)cc1
IC50: 10 to 20 µM
--
Compound: COc1ccc(C[C@H]2NC[C@H](O)[C@H]2OC(=O)NCCN2CCC3(CNC3)C2)cc1
IC50: > 30 µM
--
Compound: COc1ccc(C[C@H]2NC[C@H](O)[C@H]2OC(=O)NCc2c[nH]cn2)cc1
IC50: < 10 µM
--
Compound: CCCCN(CCCC)CCNC(=O)O[C@@H]1[C@@H](O)CN[C@@H]1Cc1ccc(OC)cc1
IC50: > 30 µM
--
Compound: COc1ccc(C[C@H]2NC[C@H](O)[C@H]2OC(=O)NCCNCCOC(C)C)cc1
IC50: > 30 µM
--
Compound: COc1ccc(C[C@H]2NC[C@H](O)[C@H]2OC(=O)NCCc2ncc(C)[nH]2)cc1
IC50: > 30 µM
--
Compound: COc1ccc(C[C@H]2NC[C@H](O)[C@H]2OC(=O)NCCN2CC(O)(CN)C2)cc1
IC50: > 30 µM
--
Compound: COc1ccc(C[C@H]2NC[C@H](O)[C@H]2OC(=O)NCCCCN)cc1
IC50: < 10 µM
--
Compound: COc1ccc(C[C@H]2NC[C@H](O)[C@H]2OC(=O)Nc2nnc(CN(Cc3ccccc3)Cc3ccccc3)s2)cc1
IC50: > 30 µM
--
Compound: COc1ccc(C[C@H]2NC[C@H](O)[C@H]2OC(=O)Nc2ccccc2)cc1
IC50: > 30 µM
--
Compound: COc1ccc(C[C@H]2NC[C@H](O)[C@H]2OC(=O)NCCN2CC(N)C2)cc1
IC50: > 30 µM
--
Compound: CCN(Cc1ccccc1)Cc1nnc(NC(=O)O[C@@H]2[C@@H](O)CN[C@@H]2Cc2ccc(OC)cc2)s1
IC50: > 30 µM
--
Compound: COc1ccc(C[C@H]2NC[C@H](O)[C@H]2OC(=O)NCCc2cc[nH]n2)cc1
IC50: < 10 µM
--
Compound: COc1ccc(C[C@H]2NC[C@H](O)[C@H]2OC(=O)NCCc2nc3ccccc3[nH]2)cc1
IC50: > 30 µM
--
Compound: COc1ccc(C[C@H]2NC[C@H](O)[C@H]2OC(=O)NCCc2cnn(Cc3ccccc3)c2)cc1
IC50: 20 to 30 µM
--
Compound: C#CCNC(=O)O[C@@H]1[C@@H](O)CN[C@@H]1Cc1ccc(OC)cc1
IC50: < 10 µM
--
Compound: COc1ccc(C[C@H]2NC[C@H](O)[C@H]2OC(=O)NCCc2nc3ccc(Cl)cc3[nH]2)cc1
IC50: > 30 µM

====

# Tested on: MYC
# Method: In vitro transcription-translation (IVTT) assay, MYC reporter
# Type: biochemical
# Cond: IVTT assay, HeLa S3 lysate, MYC reporter, normalized sfGFP/mCherry ratio; half-log dilutions 30 μM-0.1 μM, 2 hrs at 30° C.
pIC50: −log10 of the molar value.

Compound: COc1ccc(C[C@H]2NC[C@H](O)[C@H]2OC(=O)NCc2ccc(Cl)s2)cc1
pIC50: > 5.00
//
Compound: O=C(NCCC1CCNCC1)O[C@@H]1[C@@H](O)CN[C@@H]1Cc1ccc(-c2ccc(Cl)s2)cc1
pIC50: > 5.00
//
Compound: O=C(NCC1CC1)O[C@@H]1[C@@H](O)CN[C@@H]1Cc1ccc(-c2cnco2)cc1
pIC50: > 5.00
//
Compound: COc1ccc(C[C@H]2NC[C@H](O)[C@H]2OC(=O)NCc2ccccc2F)cc1
pIC50: > 5.00
//
Compound: COc1ccc(C[C@H]2NC[C@H](O)[C@H]2OC(=O)NCc2ccc(C3CCNC3)cc2)cc1 (stereo partly shown)
pIC50: > 5.00
//
Compound: COc1ccc(C[C@H]2NC[C@H](O)[C@H]2OC(=O)NCCc2c(C)noc2C)cc1
pIC50: < 4.52
//
Compound: O=C(NCCc1cnoc1)O[C@@H]1[C@@H](O)CN[C@@H]1Cc1ccc(-c2cncs2)cc1
pIC50: > 5.00
//
Compound: O=C(NCCC1CCNCC1)O[C@@H]1[C@@H](O)CN[C@@H]1Cc1ccc(-c2ccc(F)c(F)c2)cc1
pIC50: > 5.00
//
Compound: COc1ccc(C[C@H]2NC[C@H](O)[C@H]2OC(=O)NCc2ccc(S(N)(=O)=O)cc2)cc1
pIC50: > 5.00
//
Compound: O=C(NCc1cccc(F)c1)O[C@@H]1[C@@H](O)CN[C@@H]1Cc1ccc(-c2nnc(C(F)(F)F)s2)cc1
pIC50: 4.70 to 5.00
//
Compound: COc1ccc(C[C@H]2NC[C@H](O)[C@H]2OC(=O)NCCc2ccc(S(=O)(=O)F)cc2)cc1
pIC50: 4.70 to 5.00
//
Compound: O=C(NCCOC(F)(F)F)O[C@@H]1[C@@H](O)CN[C@@H]1Cc1ccc(C(F)F)cc1
pIC50: > 5.00
//
Compound: O=C(NCC[C@@H]1CCCN1)O[C@@H]1[C@@H](O)CN[C@@H]1Cc1ccc(-c2cnco2)cc1
pIC50: > 5.00
//
Compound: COc1ccc(C[C@H]2NC[C@H](O)[C@H]2OC(=O)NCc2cc(N3CCC3)nc(N3CCC3)c2)cc1
pIC50: 4.52 to 4.70
//
Compound: COc1ccc(C[C@H]2NC[C@H](O)[C@H]2OC(=O)NCc2cccc(C(F)F)c2)cc1
pIC50: > 5.00
//
Compound: O=C(NCCC12CC(CN1)C2)O[C@@H]1[C@@H](O)CN[C@@H]1Cc1ccc(-c2cnco2)cc1
pIC50: > 5.00
